Each entry below lists one item and its recorded pIC50 value.
# ASSAYED SYSTEM: protein-protein interaction between Kras and SOS1 (biotin-tagged human Kras loaded with GDP, His-tagged human SOS1) (Homo sapiens (Human), UniProt P01116, G12D)
# METHOD DESCRIPTION: Protein-protein interaction inhibition between Kras and SOS1 (KrasG12D-SOS PPI) using AlphaScreen;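 note: kras produced in E. coli, Ni-coupled donor beads and streptavidin acceptor beads, excitation 680 nm with emission detected at 520–620 nm via singlet oxygen transfer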
# Type: biochemical
# CONDITION SUMMARY: AlphaScreen; biotin-tagged human Kras loaded with GDP, His-tagged human SOS1; read-out: KRAS G12D-SOS PPI IC50
Numbered stars: 1 amine (or outer) side, 2 acyl side, 3 side chain; on linkers, the order of the positions; unused ones are H or OH. Bridge positions count the residues as written; N and C are the ends. Square brackets hold non-standard residues; d marks the D form. Peptide text beside a SMILES is read from it. * marks the point of attachment. hPhe(3-Cl-4-CF3) = N[C@@H](CCc1ccc(C(F)(F)F)c(Cl)c1)C(=O)O; hPhe(3-F,4-CF3) = N[C@@H](CCc1ccc(C(F)(F)F)c(F)c1)C(=O)O; NMedβ3hAla = C[C@H](CC(=O)[*:2])N(C)[*:1]; NMeCha = CN[C@@H](CC1CCCCC1)C(=O)O; NMeI = CC[C@H](C)[C@H](NC)C(=O)O; NMeD = CN[C@@H](CC(=O)O)C(=O)O; NMeL = CN[C@@H](CC(C)C)C(=O)O; NMeS = CN[C@@H](CO)C(=O)O; Morpholide = C1CN(*)CCO1; NMeA = CN[C@@H](C)C(=O)O; Ac5c = NC1(C(=O)O)CCCC1; Aze = O=C(O)[C@@H]1CCN1; Sar = CNCC(=O)O; Propyl = CCC*
pIC50 here is simply -log10 of the concentration when that concentration is written in mol/L.

COMPOUND: CCCOC[C@H]1C(=O)N(C)CC(=O)N[C@@H](CCc2ccc(C(F)(F)F)c(Cl)c2)C(=O)N2CCC[C@H]2C(=O)NC2(CCCC2)C(=O)N(C)[C@@H]([C@@H](C)CC)C(=O)N(C)[C@H](C)CC(=O)N(C)[C@@H](CC(C)C)C(=O)N[C@@H]([C@@H](C)CC)C(=O)N(C)[C@@H](C)C(=O)N2CC[C@H]2C(=O)N1C [Compound 529] (cyclo([Ac5c][NMeI][NMedβ3hAla][NMeL]I[NMeA][Aze][NMeS](Propyl)[Sar][hPhe(3-Cl-4-CF3)]P))
pIC50: 8.09

Give the reported pIC50 for this compound. CC[C@H](C)[C@@H]1NC(=O)[C@H](CC(C)C)N(C)C(=O)C[C@@H](C(=O)N2CCOCC2)N(C)C(=O)[C@H]([C@@H](C)CC)N(C)C(=O)C2(CCCC2)NC(=O)[C@@H]2CCCN2C(=O)[C@H](CCc2ccc(C(F)(F)F)c(F)c2)NC(=O)CN(C)C(=O)[C@H](CC2CCCCC2)N(C)C(=O)[C@@H]2CCN2C(=O)[C@H](C)N(C)C1=O [Compound 790] ([NMeL]I[NMeA][Aze][NMeCha][Sar][hPhe(3-F,4-CF3)]P[Ac5c][NMeI][NMeD]-Morpholide; lactam N-11)
8.60

src = patent US20240148821A1
